Origin of measurements: patent US20200338084A1

Target chain: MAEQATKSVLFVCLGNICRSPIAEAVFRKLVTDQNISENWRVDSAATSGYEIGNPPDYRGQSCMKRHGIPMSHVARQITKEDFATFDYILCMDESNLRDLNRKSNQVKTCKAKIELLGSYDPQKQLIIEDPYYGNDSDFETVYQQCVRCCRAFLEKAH
IC50 values, listed per item

N#Cc1ccc(-c2nc3c(N)ncn(Cc4c(Cl)cccc4Cl)c-3n2)cc1: ≤ 1 µM

Need IC50 of COc1ccccc1Cn1cnc(NCc2ccco2)c2ncnc1-2 , thanks. ≥ 20 µM

Need IC50 of O=[N+]([O-])c1ccc(Nc2ncn(Cc3c(Cl)cccc3Cl)c3ncnc2-3)cc1 , thanks. 1 to 20 µM

Need IC50 of CCCCCNc1ncn(Cc2c(Cl)cccc2Cl)c2ncnc1-2 , thanks. 1 to 20 µM

* * *

testedOn: human LMPTP-A (Homo sapiens)
pIC50: −log10 of the molar value.
propertyLabel: pIC50

Use these answered entries as a reference point.
COc1cccc(-c2nc3c(N)ncn(Cc4c(Cl)cccc4Cl)c-3n2)c1: ≥ 6.00
FC(F)Oc1cccc(Nc2ncn(Cc3c(Cl)cccc3Cl)c3ncnc2-3)c1: 4.70 to 6.00
Nc1ncn(Cc2c(Cl)cccc2I)c2ncnc1-2: ≥ 6.00
O=C(O)c1ccc(Nc2ncn(Cc3c(Cl)cccc3Cl)c3ncnc2-3)cc1: 4.70 to 6.00

Consider the record given below.
Which measured pIC50 belongs to Nc1ncn(Cc2c(Br)cccc2Br)c2ncnc1-2 [3-(2,6-dibromobenzyl)-3H-purin-6-amine] , tested on human LMPTP-A (Homo sapiens)? ≥ 6.00

* * *

IC50 values, listed per item
testedOn: human LMPTP-A (Homo sapiens, UniProt P24666)
Sequence (P24666 1-158): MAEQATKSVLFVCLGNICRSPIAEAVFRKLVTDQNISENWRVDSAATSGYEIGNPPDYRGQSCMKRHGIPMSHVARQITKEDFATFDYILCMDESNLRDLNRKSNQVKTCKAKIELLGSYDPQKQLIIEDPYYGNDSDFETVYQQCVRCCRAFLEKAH

Use these answered entries as a reference point.
N#Cc1ccc(Cn2cnc(NCc3ccco3)c3ncnc2-3)cc1: ≥ 20 µM
Clc1cccc(Cl)c1Cn1cnc(N2CCCC2)c2ncnc1-2: ≥ 20 µM
Nc1ncn(Cc2c(Cl)cccc2[N+](=O)[O-])c2ncnc1-2: ≤ 1 µM
Fc1cccc(CNc2ncn(Cc3c(Cl)cccc3Cl)c3ncnc2-3)c1: 1 to 20 µM
Clc1cccc(Cl)c1Cn1cnc(Nc2cccc(OCc3ccccc3)c2)c2ncnc1-2: 1 to 20 µM
COCCCNc1ncn(Cc2c(Cl)cccc2Cl)c2ncnc1-2: 1 to 20 µM
Clc1cccc(Cl)c1Cn1cnc(Nc2ccccc2)c2ncnc1-2: 1 to 20 µM
COc1cccc(Cl)c1Cn1cnc(N)c2ncnc1-2: 1 to 20 µM
CNc1ncn(Cc2c(Cl)cccc2Cl)c2ncnc1-2: 1 to 20 µM
Nc1ncn(Cc2c(Cl)cccc2Cl)c2nc(C(F)F)nc1-2: 1 to 20 µM

Consider the record given below.
Need IC50 of Nc1ncn(Cc2ccccn2)c2ncnc1-2 , thanks. 1 to 20 µM

* * *

Below are pIC50 values recorded for human LMPTP-A (Homo sapiens, UniProt P24666).
pIC50: −log10 of the molar value.

Use these answered entries as a reference point.
Nc1ncn(Cc2c(Cl)ccnc2Cl)c2ncnc1-2: ≥ 6.00
Nc1ncn(Cc2ccncc2)c2ncnc1-2 [3-Pyridin-4-ylmethyl-3H-purin-6-ylamine]: 4.70 to 6.00
Nc1ncn(Cc2nnn[nH]2)c2ncnc1-2: ≤ 4.70
Cc1ccc(-c2nc3c(N)ncn(Cc4c(Cl)cccc4Cl)c-3n2)cc1: ≥ 6.00
O=C(Nc1ncn(Cc2c(Cl)cccc2Cl)c2ncnc1-2)c1ccncc1: ≥ 6.00

Which measured pIC50 belongs to Cc1ccc(CNc2ncn(Cc3c(Cl)cccc3Cl)c3ncnc2-3)o1 , tested on human LMPTP-A (Homo sapiens, UniProt P24666)? 4.70 to 6.00

Which measured pIC50 belongs to N#Cc1ccccc1Cn1cnc(NCc2ccco2)c2ncnc1-2 , tested on human LMPTP-A (Homo sapiens, UniProt P24666)? ≤ 4.70

Which measured pIC50 belongs to Nc1ncn(Cc2ccncc2Cl)c2ncnc1-2 , tested on human LMPTP-A (Homo sapiens, UniProt P24666)? 4.70 to 6.00

Which measured pIC50 belongs to NCCCCNc1ncn(Cc2c(Cl)cccc2Cl)c2ncnc1-2 , tested on human LMPTP-A (Homo sapiens, UniProt P24666)? 4.70 to 6.00

Which measured pIC50 belongs to Cc1csc(-c2nc3c(N)ncn(Cc4c(Cl)cccc4Cl)c-3n2)c1 , tested on human LMPTP-A (Homo sapiens, UniProt P24666)? ≤ 4.70

Which measured pIC50 belongs to Nc1ncn(Cc2c(Cl)cccc2C(=O)O)c2ncnc1-2 , tested on human LMPTP-A (Homo sapiens, UniProt P24666)? 4.70 to 6.00

Which measured pIC50 belongs to Nc1ncn(Cc2c(Cl)cccc2Cl)c2nc(-c3ccccc3)nc1-2 , tested on human LMPTP-A (Homo sapiens, UniProt P24666)? ≥ 6.00

Which measured pIC50 belongs to Nc1ncn(Cc2c(F)cccc2Cl)c2ncnc1-2 , tested on human LMPTP-A (Homo sapiens, UniProt P24666)? ≥ 6.00

* * *

Target sequence: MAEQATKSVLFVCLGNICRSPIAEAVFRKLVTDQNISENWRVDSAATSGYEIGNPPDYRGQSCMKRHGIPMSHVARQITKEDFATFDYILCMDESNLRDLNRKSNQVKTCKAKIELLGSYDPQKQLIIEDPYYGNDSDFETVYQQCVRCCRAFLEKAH
propertyLabel: IC50

Use these answered entries as a reference point.
Nc1ncn(Cc2c(Cl)cccc2Cl)c2nc(-c3ccc(Cl)cc3)nc1-2: ≤ 1000 nM
Cc1ccccc1Cc1nc2c(N)ncn(Cc3c(Cl)cccc3Cl)c-2n1: ≤ 1000 nM
COc1ccc(-c2nc3c(N)ncn(Cc4c(Cl)cccc4Cl)c-3n2)cc1: ≤ 1000 nM
O=C(Nc1ncn(Cc2c(Cl)cccc2Cl)c2ncnc1-2)c1ccccc1: ≥ 20000 nM
N#Cc1ccc(Nc2ncn(Cc3c(Cl)cccc3Cl)c3ncnc2-3)cc1: 1000 to 20000 nM

Need IC50 of Nc1ncn(Cc2cccc(F)c2)c2ncnc1-2 [3-(3-Fluoro-benzyl)-3H-purin-6-ylamine] , thanks. 1000 to 20000 nM

Need IC50 of CN(C)C(=O)c1cccc(Nc2ncn(Cc3c(Cl)cccc3Cl)c3ncnc2-3)c1 , thanks. 1000 to 20000 nM

Need IC50 of Cc1ccccc1-c1nc2c(N)ncn(Cc3c(Cl)cccc3Cl)c-2n1 , thanks. ≤ 1000 nM

Need IC50 of Nc1ncn(Cc2c(Cl)cccc2Cl)c2nc(-c3ccsc3)nc1-2 , thanks. ≤ 1000 nM

Need IC50 of Clc1cccc(Cl)c1Cn1cnc(NCc2cccs2)c2ncnc1-2 , thanks. 1000 to 20000 nM

* * *

pIC50 values, listed per item
Target protein (sequence): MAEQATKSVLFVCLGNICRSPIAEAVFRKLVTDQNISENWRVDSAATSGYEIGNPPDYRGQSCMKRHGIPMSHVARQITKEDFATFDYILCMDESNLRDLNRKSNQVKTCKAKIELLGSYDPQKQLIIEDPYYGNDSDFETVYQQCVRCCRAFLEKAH
pIC50: −log10 of the molar value.

Cc1cccc(C)c1Cn1cnc(N)c2ncnc1-2: 4.70 to 6.00

Need pIC50 of O=S(=O)(Cc1cccc(F)c1)Nc1ncn(Cc2c(Cl)cccc2Cl)c2ncnc1-2 , thanks. ≤ 4.70

Need pIC50 of Nc1ncn(Cc2c(Cl)cccc2Cl)c2ncnc1-2 , thanks. ≥ 6.00

* * *

testedOn: human LMPTP-A (Homo sapiens)
pIC50: −log10 of the molar value.
propertyLabel: pIC50

Use these answered entries as a reference point.
Nc1ncn(Cc2c(Cl)cccc2Cl)c2nc(-c3cccc(Cl)n3)nc1-2: ≥ 6.00
NCCNc1ncn(Cc2c(Cl)cccc2Cl)c2ncnc1-2: ≤ 4.70
COc1ccc(Cn2cnc(N)c3ncnc2-3)cc1: 4.70 to 6.00

Which measured pIC50 belongs to Cc1ccncc1-c1nc2c(N)ncn(Cc3c(Cl)cccc3Cl)c-2n1 , tested on human LMPTP-A (Homo sapiens)? ≥ 6.00

Which measured pIC50 belongs to COC(=O)c1cccc(Nc2ncn(Cc3c(Cl)cccc3Cl)c3ncnc2-3)c1 , tested on human LMPTP-A (Homo sapiens)? 4.70 to 6.00

Which measured pIC50 belongs to CCCNc1ncn(Cc2c(Cl)cccc2Cl)c2ncnc1-2 , tested on human LMPTP-A (Homo sapiens)? 4.70 to 6.00

* * *

testedOn: human LMPTP-A (Homo sapiens, UniProt P24666)
Sequence (P24666 1-158): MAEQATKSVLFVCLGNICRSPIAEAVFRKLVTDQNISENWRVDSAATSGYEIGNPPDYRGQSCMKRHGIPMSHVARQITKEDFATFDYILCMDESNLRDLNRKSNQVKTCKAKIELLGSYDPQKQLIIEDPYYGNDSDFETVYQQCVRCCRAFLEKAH
propertyLabel: IC50

Nc1ncn(Cc2c(Cl)cccc2Cl)c2nc(-c3ccc(F)cc3F)nc1-2: ≤ 1000 nM
Nc1ncn(Cc2c(Cl)cccc2Cl)c2nc(-c3c(F)cccc3F)nc1-2: ≤ 1000 nM
Nc1ncn(Cc2c(Cl)cccc2Cl)c2nc(-c3ccc(F)cc3)nc1-2: ≤ 1000 nM

Which measured IC50 belongs to Cc1cccc(Cn2cnc(N)c3ncnc2-3)n1 , tested on human LMPTP-A (Homo sapiens, UniProt P24666)? ≥ 20000 nM

Which measured IC50 belongs to COc1cccc(Nc2ncn(Cc3c(Cl)cccc3Cl)c3ncnc2-3)c1 , tested on human LMPTP-A (Homo sapiens, UniProt P24666)? 1000 to 20000 nM

Which measured IC50 belongs to Nc1ncn(Cc2c(Cl)cccc2Cl)c2nc(-c3ccccc3F)nc1-2 , tested on human LMPTP-A (Homo sapiens, UniProt P24666)? ≤ 1000 nM

Which measured IC50 belongs to Nc1ncn(Cc2c(Cl)cccc2Cl)c2nc(CCc3ccc(F)cc3)nc1-2 , tested on human LMPTP-A (Homo sapiens, UniProt P24666)? ≤ 1000 nM

Which measured IC50 belongs to N#Cc1ccc(Cn2cnc(N)c3ncnc2-3)cc1 , tested on human LMPTP-A (Homo sapiens, UniProt P24666)? 1000 to 20000 nM

Which measured IC50 belongs to Nc1ncn(Cc2c(Cl)cccc2Cl)c2nc(C3CCC3)nc1-2 , tested on human LMPTP-A (Homo sapiens, UniProt P24666)? ≤ 1000 nM

Which measured IC50 belongs to Nc1ncn(Cc2c(F)cccc2F)c2ncnc1-2 , tested on human LMPTP-A (Homo sapiens, UniProt P24666)? 1000 to 20000 nM

Which measured IC50 belongs to Fc1cccc(Nc2ncn(Cc3c(Cl)cccc3Cl)c3ncnc2-3)c1 , tested on human LMPTP-A (Homo sapiens, UniProt P24666)? 1000 to 20000 nM

Which measured IC50 belongs to Nc1ncn(Cc2c(Cl)cccc2Cl)c2nc(C3CCNCC3)nc1-2 , tested on human LMPTP-A (Homo sapiens, UniProt P24666)? ≤ 1000 nM

Which measured IC50 belongs to CCCCCCc1nc2c(N)ncn(Cc3c(Cl)cccc3Cl)c-2n1 , tested on human LMPTP-A (Homo sapiens, UniProt P24666)? ≤ 1000 nM
